experimentNotes: RP, Waters ACQUITY UPLC HSS T3, 0.1 mL/min; A: water + 0.01% formic acid; B: acetonitrile + 0.01% formic acid; gradient (min/%B) 0/10 38/45 45/45 55/0 60/0
experimentalParameters: stereoisomer not certain
measurementName: LC retention time (min)
Return type: number; implicit unit min.

Please review the following examples before continuing.
{"compound": "CNCC(O)c1ccc(O)c(O)c1 (stereo not drawn) [Epinephrine]", "LC retention time [min]": 4.39}
{"compound": "COCC(C)N(C(=O)CCl)c1c(C)csc1C (stereo not drawn) [Dimethenamid]", "LC retention time [min]": 32.5}
{"compound": "CN1COCN(Cc2cnc(Cl)s2)C1=N[N+](=O)[O-] [Thiamethoxam]", "LC retention time [min]": 6.97}
{"compound": "CC(C)C1(C)N=C(c2nc3ccccc3cc2C(=O)O)NC1=O (stereo not drawn) [Imazaquin]", "LC retention time [min]": 16.3}

Dear colleague, I am looking for the recorded LC retention time of the following compound: CCOC(=O)CC(SP(=S)(OC)OC)C(=O)OCC (stereo not drawn) [Malathion]
40.8

Dear colleague, I am looking for the recorded LC retention time of the following compound: COC(=O)N(OC)c1ccccc1COc1ccn(-c2ccc(Cl)cc2)n1 [Pyraclostrobine]
43.5

----------
experimentNotes: RP, Waters ACQUITY UPLC HSS T3, 0.1 mL/min; A: water + 0.01% formic acid; B: acetonitrile + 0.01% formic acid; gradient (min/%B) 0/10 38/45 45/45 55/0 60/0
experimentalParameters: stereoisomer not certain
Recorded measurements of LC retention time, one per entry
Return type: number; implicit unit min.

Dear colleague, I am looking for the recorded LC retention time of the following compound: CCOP(=O)(SC(C)CC)N1CCSC1=O (stereo unspecified) [Fosthiazate]
22.2

Dear colleague, I am looking for the recorded LC retention time of the following compound: CS(=O)(=O)c1ccc(C(=O)C2C(=O)CCCC2=O)c([N+](=O)[O-])c1
16.5

Dear colleague, I am looking for the recorded LC retention time of the following compound: CCC(Oc1ccc(F)c(C(F)(F)F)c1)C(=O)NCc1ccccc1 (stereo unspecified)
42.7

----------
Recorded measurements of LC retention time, one per entry
experimentNotes: RP, Waters ACQUITY UPLC HSS T3, 0.1 mL/min; A: water + 0.01% formic acid; B: acetonitrile + 0.01% formic acid; gradient (min/%B) 0/10 38/45 45/45 55/0 60/0
experimentalParameters: stereoisomer not certain
Return type: number; implicit unit min.

Please review the following examples before continuing.
{"molecule": "CNC(=O)Nc1ccc(Cl)c(Cl)c1", "measurementName": "LC retention time", "valueReported": 20.5}
{"molecule": "CC(C(=O)O)c1cccc(C(=O)c2ccccc2)c1 (stereo not given)", "measurementName": "LC retention time", "valueReported": 28.3}
{"molecule": "O=C(Nc1ccccc1)N(Cc1ccc(Cl)cc1)C1CCCC1", "measurementName": "LC retention time", "valueReported": 43.7}
{"molecule": "CC(C)N(C(=O)CCl)c1ccccc1", "measurementName": "LC retention time", "valueReported": 25.8}

Dear colleague, I am looking for the recorded LC retention time of the following molecule: CSc1nnc(C(C)(C)C)c(=O)n1N
15.6

----------
experimentNotes: RP, Waters ACQUITY UPLC HSS T3, 0.1 mL/min; A: water + 0.01% formic acid; B: acetonitrile + 0.01% formic acid; gradient (min/%B) 0/10 38/45 45/45 55/0 60/0
experimentalParameters: stereoisomer not certain
Recorded measurements of LC retention time, one per entry
Return type: number; implicit unit min.

Please review the following examples before continuing.
{"molecule": "CCCCCC(O)C=CC1C(O)CC(O)C1CC=CCCCC(=O)O (centres undefined)", "measurementUnit": "min", "valueReported": 25.6}
{"molecule": "CNC(=O)Oc1cccc2c1OC(C)(C)C2", "measurementUnit": "min", "valueReported": 18.6}
{"molecule": "CCS(=O)(=O)c1nnc(N(C)C(=O)NC)s1", "measurementUnit": "min", "valueReported": 9.06}
{"molecule": "CON(C)C(=O)Nc1ccc(Br)cc1", "measurementUnit": "min", "valueReported": 24.5}

Dear colleague, I am looking for the recorded LC retention time of the following molecule: CNC(=O)c1cc(Cl)cc(C)c1NC(=O)c1cc(Br)nn1-c1ncccc1Cl
30.9

Dear colleague, I am looking for the recorded LC retention time of the following molecule: CCC(C)C(=O)OC1CC(O)C=C2C=CC(C)C(CCC(O)CC(O)CC(=O)O)C21 (centres undefined)
20.5

Dear colleague, I am looking for the recorded LC retention time of the following molecule: NC(=O)N1c2ccccc2C=Cc2ccccc21 [Carbamazepine]
18

Dear colleague, I am looking for the recorded LC retention time of the following molecule: COc1nc(NC(=O)NS(=O)(=O)c2ccccc2C(F)(F)F)nc(C(F)(F)F)n1
35.9

Dear colleague, I am looking for the recorded LC retention time of the following molecule: N#CN=C1SCCN1Cc1ccc(Cl)nc1
12.2

Dear colleague, I am looking for the recorded LC retention time of the following molecule: Cc1ccc(C(=O)O)c(Cl)c1
44.3

Dear colleague, I am looking for the recorded LC retention time of the following molecule: CC(Cc1ccc(C(C)(C)C)cc1)CN1CCCCC1 (centres undefined)
26.2

Dear colleague, I am looking for the recorded LC retention time of the following molecule: CNC(=N[N+](=O)[O-])NCc1cnc(Cl)s1
7.99

Dear colleague, I am looking for the recorded LC retention time of the following molecule: CC(=O)C1CCC2C3CC=C4CC(O)CCC4(C)C3CCC12C (centres undefined)
41.8

Dear colleague, I am looking for the recorded LC retention time of the following molecule: Cn1cc(C(=O)Nc2ccc(F)cc2-c2ccc(Cl)c(Cl)c2)c(C(F)F)n1
42.2

Dear colleague, I am looking for the recorded LC retention time of the following molecule: CC(=O)C1CCC2C3CCC4CC(O)CCC4(C)C3CCC12C (centres undefined)
43.9

Dear colleague, I am looking for the recorded LC retention time of the following molecule: Fc1ccc(C2CCNCC2COc2ccc3c(c2)OCO3)cc1 (centres undefined)
18.3

Dear colleague, I am looking for the recorded LC retention time of the following molecule: CCc1cccc(CC)c1N(COC)C(=O)CCl
39.4

Dear colleague, I am looking for the recorded LC retention time of the following molecule: CSC1=NC(C)(c2ccccc2)C(=O)N1Nc1ccccc1 (centres undefined)
35.8

Dear colleague, I am looking for the recorded LC retention time of the following molecule: Cc1cc(Cl)ccc1OCC(=O)O
17.2

----------
experimentNotes: RP, Waters ACQUITY UPLC HSS T3, 0.1 mL/min; A: water + 0.01% formic acid; B: acetonitrile + 0.01% formic acid; gradient (min/%B) 0/10 38/45 45/45 55/0 60/0
experimentalParameters: stereoisomer not certain
Criterion: LC retention time strictly under 10 min. Met: yes (1). Not met: no (0).

{"compound": "COc1cc(OC)n2nc(NS(=O)(=O)c3c(C(F)(F)F)ccnc3OC)nc2n1", "classification": "no (0)"}
{"compound": "CC(C)N(Cc1ccccc1)C(=O)C(C)(C)C", "classification": "no (0)"}
{"compound": "Nc1c(Cl)c(F)nc(OCC(=O)O)c1Cl", "classification": "no (0)"}

In the record for O=C(O)COc1nc(Cl)c(Cl)cc1Cl , is LC retention time less than 10 min?
no (0)

In the record for CC(C)NC(=O)N1CC(=O)N(c2cc(Cl)cc(Cl)c2)C1=O , is LC retention time less than 10 min?
no (0)

In the record for COP(=S)(S)OC [Dimethyldithiophosphate] , is LC retention time less than 10 min?
yes (1)

----------
experimentNotes: RP, Waters ACQUITY UPLC HSS T3, 0.1 mL/min; A: water + 0.01% formic acid; B: acetonitrile + 0.01% formic acid; gradient (min/%B) 0/10 38/45 45/45 55/0 60/0
experimentalParameters: stereoisomer not certain
measurementName: LC retention time (min)
Return type: number; implicit unit min.

{"compound": "CC(C)(C)C(=O)OCOC(=O)C1N2C(=O)C(N=CN3CCCCCC3)C2SC1(C)C (configuration not stated)", "measurementUnit": "min", "LC retention time": 26.4}

Dear colleague, I am looking for the recorded LC retention time of the following compound: CCCCCC=CCC(O)C=CC=CC=CC(O)CCCC(=O)O (configuration not stated)
39.5

----------
Recorded measurements of LC retention time, one per entry
experimentNotes: RP, Waters ACQUITY UPLC HSS T3, 0.1 mL/min; A: water + 0.01% formic acid; B: acetonitrile + 0.01% formic acid; gradient (min/%B) 0/10 38/45 45/45 55/0 60/0
experimentalParameters: stereoisomer not certain
Return type: number; implicit unit min.

{"compound": "CON(C)C(=O)Nc1ccc(Cl)c(Cl)c1", "valueReported": 31.7}
{"compound": "COC(=O)Nc1nc2ccccc2[nH]1", "valueReported": 5.69}

Now let's try a different one.
Dear colleague, I am looking for the recorded LC retention time of the following compound: CC(Cc1ccc(C(C)(C)C)cc1)CN1CC(C)OC(C)C1 (stereo not drawn)
30.1
